Assayed system: COX-2 (Mus musculus, UniProt Q05769)
Construct: endogenous in cells; host or cells: RAW264.7 murine macrophages, stimulated with LPS and IFN-g
Sequence (Q05769 18-604): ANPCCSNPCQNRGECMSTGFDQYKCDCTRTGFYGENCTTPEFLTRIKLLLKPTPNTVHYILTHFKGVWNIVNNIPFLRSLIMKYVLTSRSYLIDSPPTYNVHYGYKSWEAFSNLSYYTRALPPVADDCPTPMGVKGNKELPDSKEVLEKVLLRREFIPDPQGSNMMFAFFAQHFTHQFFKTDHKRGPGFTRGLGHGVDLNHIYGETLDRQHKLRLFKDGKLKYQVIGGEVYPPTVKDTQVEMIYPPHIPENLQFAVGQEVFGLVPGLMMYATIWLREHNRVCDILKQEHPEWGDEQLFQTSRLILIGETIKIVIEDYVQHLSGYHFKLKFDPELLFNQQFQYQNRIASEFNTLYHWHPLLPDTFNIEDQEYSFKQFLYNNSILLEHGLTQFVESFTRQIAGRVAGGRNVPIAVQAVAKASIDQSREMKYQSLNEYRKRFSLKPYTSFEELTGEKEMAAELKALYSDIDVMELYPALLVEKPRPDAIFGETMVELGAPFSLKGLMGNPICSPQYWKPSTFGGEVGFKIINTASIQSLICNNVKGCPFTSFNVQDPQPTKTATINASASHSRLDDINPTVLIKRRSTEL
Assay overview: Cell-based COX-2 assay (PGE2 in LPS/IFN-g stimulated RAW264.7 cells)
Condition label: RAW264.7 murine macrophages, 1 μg/ml LPS and 10 U/ml IFN-g for 7 h, PGE2 readout
Test readout: IC50 (µM)

1. COc1ccc2c(c1)c(CC(=O)NCCCCCC[N+]13CC[S][Re-]14(=[O])[S]CC[N]4C(=O)C3)c(C)n2C(=O)c1ccc(Cl)cc1 (centres unmarked) [Compound 260] | 0.2
2. CCOC(=O)C1C[S][Re]23(=[O])[S]CC(C(=O)NCCCCCCCCNC(=O)Cc4c(C)n(C(=O)c5ccc(Cl)cc5)c5ccc(OC)cc45)[N]2CC[N]13 (centres unmarked) [Compound 183] | 0.7
3. COc1ccc2c(c1)c(CC(=O)NCCCCCC(C)(C)NC(=O)c1ccc[cH-]1)c(C)n2C(=O)c1ccc(Cl)cc1.[C-]#[O+].[C-]#[O+].[C-]#[O+].[Re+] [Compound 313] | 0.2
4. COc1ccc2c(c1)c(CC(=O)NCCNC(=O)[c-]1cccc1)c(C)n2C(=O)c1ccc(Cl)cc1.[C-]#[O+].[C-]#[O+].[C-]#[O+].[Re+] [Compound 243] | 0.7
5. COc1ccc2c(c1)c(CC(=O)N[C@H](C)CCCCC[N+]13CC[S][Re-]14(=[O])[S]CC[N]4C(=O)C3)c(C)n2C(=O)c1ccc(Cl)cc1 (some centres unmarked) [Compound 328] | 0.1
6. COc1ccc2c(c1)c(CC(=O)NCCCOCCC[N+]13CC[S][Re-]14(=[O])[S]CC[N]4C(=O)C3)c(C)n2C(=O)c1ccc(Cl)cc1 (centres unmarked) [Compound 266] | 0.2
7. [2H]C([2H])([2H])Oc1ccc2c(c1)c(CC(=O)NCCCCCC[N+]13CC[S][Re-]14(=[O])[S]CC[N]4C(=O)C3)c(C)n2C(=O)c1ccc(Cl)cc1 (centres unmarked) [Compound 346] | 0.2
8. NS(=O)(=O)c1ccc(-n2nc(CNC(=O)c3ccc[cH-]3)cc2-c2ccc(F)cc2)cc1.[C-]#[O+].[C-]#[O+].[C-]#[O+].[Re+] [Compound 365] | 1.1
9. COc1ccc2c(c1)c(CC(=O)NCCCOCCCNC(=O)c1ccc[cH-]1)c(C)n2C(=O)c1ccc(Cl)cc1.[C-]#[O+].[C-]#[O+].[C-]#[O+].[Re+] [Compound 310] | 0.2
10. COc1ccc2c(c1)c(CC(=O)NCCCCCCCCNC(=O)[c-]1cccc1)c(C)n2C(=O)c1ccc(Cl)cc1.[C-]#[O+].[C-]#[O+].[C-]#[O+].[Re+] [Compound 247] | 2.6

----------
Assayed system: human COX-2 (Homo sapiens, UniProt P35354)
Construct: purchased Cayman Chemical Co., Ann Arbor, Mich., USA 701080
Sequence (P35354 18-604): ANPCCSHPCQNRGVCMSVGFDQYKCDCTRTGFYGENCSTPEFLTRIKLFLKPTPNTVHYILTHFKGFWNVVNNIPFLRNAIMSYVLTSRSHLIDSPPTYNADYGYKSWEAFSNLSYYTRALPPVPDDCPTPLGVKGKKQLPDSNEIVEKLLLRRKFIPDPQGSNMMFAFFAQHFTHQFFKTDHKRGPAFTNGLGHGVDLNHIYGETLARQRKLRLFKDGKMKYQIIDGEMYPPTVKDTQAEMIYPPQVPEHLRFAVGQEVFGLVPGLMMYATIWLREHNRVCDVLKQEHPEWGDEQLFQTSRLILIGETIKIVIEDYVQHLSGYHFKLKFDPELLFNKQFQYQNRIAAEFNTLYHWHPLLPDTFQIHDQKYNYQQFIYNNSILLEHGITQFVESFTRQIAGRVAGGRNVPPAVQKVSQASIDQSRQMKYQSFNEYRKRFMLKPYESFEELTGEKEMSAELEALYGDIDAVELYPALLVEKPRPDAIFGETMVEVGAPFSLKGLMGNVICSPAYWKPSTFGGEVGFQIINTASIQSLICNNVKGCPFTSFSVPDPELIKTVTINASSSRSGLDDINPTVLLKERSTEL
Assay overview: COX-2 enzyme assay (EIA kit, PGF2α readout)
Type: biochemical
Reported values of IC50 for individual entries
Test readout: IC50

1) Cc1c(CC(=O)O)c2cc(OCCCCNC(=O)C[N]3C(=O)C[N]4C(=O)C[N]5C(=O)C[S][Re]354=[O])ccc2n1C(=O)c1ccc(Cl)cc1 | 1600 nM
2) Cc1c(CC(=O)O)c2cc(OCCCCCCNC(=O)C[N]3C(=O)C[N]4C(=O)C[N]5C(=O)C[S][Re]354=[O])ccc2n1C(=O)c1ccc(Cl)cc1 | 1100 nM
3) COc1ccc2c(c1)c(CC(=O)NCCOCC[N+]13CC[S][Re-]14(=[O])[S]CC[N]4C(=O)C3)c(C)n2C(=O)c1ccc(Cl)cc1 (stereo not shown) | 900 nM
4) COc1ccc2c(c1)c(CC(=O)NCCCCCCC[N+]13CC[S][Re-]14(=[O])[S]CC[N]4CC3)c(C)n2C(=O)c1ccc(Cl)cc1 (stereo not shown) | 300 nM

----------
Reported values of IC50 for individual entries
Assayed system: human COX-2 (Homo sapiens)
Construct: purchased Cayman Chemical Co., Ann Arbor, Mich., USA 701080
Assay overview: COX-2 enzyme assay (EIA kit, PGF2α readout)
Format: biochemical
Description: The ability of compounds to inhibit ovine COX-1 and human COX-2 was determined using a commercially available enzyme immunoassay (EIA) kit (catalog no. 701090 (COX-1); 701080 (COX-2) Cayman Chemical Co., Ann Arbor, Mich., USA) according to the manufacturer's protocol. […] PGF2α, produced from PGH2 by reduction with stannous chloride, was measured by EIA (ACE™ competitive EIA, Cayman Chemical, Ann Arbor, Mich., USA). […] The produced PGF2α was measured by EIA. […]
Test readout: IC50 (µM)

1. COc1ccc2c(c1)c(CC(=O)NCCCCCCCC[N+]13CC[S][Re-]14(=[O])[S]CC[N]4C(=O)C3)c(C)n2C(=O)c1ccc(Cl)cc1 (stereo not drawn) | 2.1
2. NS(=O)(=O)c1ccc(-n2nc(CNC(=O)CCCCC[N+]34CC[S][Re-]35(=[O])[S]CC[N]5C(=O)C4)cc2-c2ccc(F)cc2)cc1 (stereo not drawn) | 4.5
3. COc1ccc2c(c1)c(CC(=O)NCCCCC[N+]13CC[S][Re-]14(=[O])[S]CC[N]4C(=O)C3)c(C)n2C(=O)c1ccc(Cl)cc1 (stereo not drawn) | 0.3

----------
Assayed system: human COX-2 (Homo sapiens)
Construct: purchased Cayman Chemical Co., Ann Arbor, Mich., USA 701080
Assay overview: COX-2 enzyme assay (EIA kit, PGF2α readout)
Assay type: biochemical
Condition label: human COX-2 enzyme, EIA; 15 min pre-incubation at 37° C.; read-out: COX-2 IC50 (μM) enzyme
Test readout: IC50 (µM)

1) COc1ccc2c(c1)c(CC(=O)NCc1ccc(CNC(=O)[c-]3cccc3)cc1)c(C)n2C(=O)c1ccc(Cl)cc1.[C-]#[O+].[C-]#[O+].[C-]#[O+].[Re+] | 1.1
2) COc1ccc2c(c1)c(CC(=O)NCCCCCCCCNC(=O)[c-]1cccc1)c(C)n2C(=O)c1ccc(Cl)cc1.[C-]#[O+].[C-]#[O+].[C-]#[O+].[Re+] | 0.2
3) COc1ccc2c(c1)c(CCNC(=O)CCCCC[N+]13CC[S][Re-]14(=[O])[S]CC[N]4C(=O)C3)c(C)n2C(=O)c1ccc(Cl)cc1 (stereo not shown) | 0.6
4) CCOC(=O)C1C[S][Re]23(=[O])[S]CC(C(=O)NCCCCCCNC(=O)Cc4c(C)n(C(=O)c5ccc(Cl)cc5)c5ccc(OC)cc45)[N]2CC[N]13 (stereo not shown) | 1
5) COc1ccc2c(c1)c(CC(=O)NCCCCCC[N+]13CC[S][Re-]14(=[O])[S]CC[N]4CC3)c(C)n2C(=O)c1ccc(Cl)cc1 (stereo not shown) | 0.7
6) COc1ccc2c(c1)c(CC(=O)NCCOCCOCCNC(=O)c1ccc[cH-]1)c(C)n2C(=O)c1ccc(Cl)cc1.[C-]#[O+].[C-]#[O+].[C-]#[O+].[Re+] | 0.3
7) COc1ccc2c(c1)c(CC(=O)NCCCCCCCNC(=O)[c-]1cccc1)c(C)n2C(=O)c1ccc(Cl)cc1.[C-]#[O+].[C-]#[O+].[C-]#[O+].[Re+] | 0.1
8) NS(=O)(=O)c1ccc(-n2nc(CNC(=O)c3ccc[cH-]3)cc2-c2ccc(F)cc2)cc1.[C-]#[O+].[C-]#[O+].[C-]#[O+].[Re+] | 7.9

----------
Reported values of IC50 for individual entries
Assayed system: COX-2 (Mus musculus)
Construct: endogenous in cells; host or cells: RAW264.7 murine macrophages, stimulated with LPS and IFN-g
Assay overview: Cell-based COX-2 assay (PGE2 in LPS/IFN-g stimulated RAW264.7 cells)
Condition label: RAW264.7 murine macrophages, 1 μg/ml LPS and 10 U/ml IFN-g for 7 h, PGE2 readout
Test readout: IC50 (µM)

1. COc1ccc2c(c1)c(CC(=O)NCCC(C)(C)CCNC(=O)c1ccc[cH-]1)c(C)n2C(=O)c1ccc(Cl)cc1.[C-]#[O+].[C-]#[O+].[C-]#[O+].[Re+] | 0.3
2. COc1ccc2c(c1)c(CC(=O)NCCCC(C)(C)NC(=O)c1ccc[cH-]1)c(C)n2C(=O)c1ccc(Cl)cc1.[C-]#[O+].[C-]#[O+].[C-]#[O+].[Re+] | 0.4
3. COc1ccc2c(c1)c(CC(=O)NCc1ccc(CNC(=O)[c-]3cccc3)cc1)c(C)n2C(=O)c1ccc(Cl)cc1.[C-]#[O+].[C-]#[O+].[C-]#[O+].[Re+] | 4.4
4. COc1ccc2c(c1)c(CC(=O)NCCCCCC[N+]13CC[S][Re-]14(=[O])[S]CC[N]4C(=O)C3)c(C(F)(F)F)n2C(=O)c1ccc(Cl)cc1 (stereo not shown) | 0.4
5. CCOC(=O)C1C[S][Re]23(=[O])[S]CC(C(=O)NCCCCCCCNC(=O)Cc4c(C)n(C(=O)c5ccc(Cl)cc5)c5ccc(OC)cc45)[N]2CC[N]13 (stereo not shown) | 0.6
6. COc1ccc2c(c1)c(CC(=O)NCCCOCC[N+]13CC[S][Re-]14(=[O])[S]CC[N]4C(=O)C3)c(C)n2C(=O)c1ccc(Cl)cc1 (stereo not shown) | 0.3
7. COc1ccc2c(c1)c(CC(=O)NCCC=CCC[N+]13CC[S][Re-]14(=[O])[S]CC[N]4C(=O)C3)c(C)n2C(=O)c1ccc(Cl)cc1 (stereo not shown) | 0.3
8. COc1ccc2c(c1)c(CC(=O)NCCCCCCCC[N+]13CC[S][Re-]14(=[O])[S]CC[N]4C(=O)C3)c(C)n2C(=O)c1ccc(Cl)cc1 (stereo not shown) | 0.1
